This collection of values is drawn from PubChem BioAssay AID1159580.

Overview of recorded normalized growth for various molecules
Experiment: chemical genetic growth profiling, strain panel (AID 1159580);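 note: tested at 20 µM; growth read once vehicle control cultures reached saturation at 30 °C; 1 = growth at the plate median or of vehicle wells; lower values mean less growth of the strain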
Details: S. cerevisiae deletion strains, growth OD, locus YGR252W, strain gcn5, active compounds read low
Screen size: about 5,500 compounds; about 2,000 (36%) were called active. Not shown: some 18% with an inconclusive outcome. The list shows a part of the results.

Below, 2 molecules whose answers are already recorded.
# MOLECULE, normalized growth
measured = [
    ("CC(=O)O[C@@H]1CC2C(C)(C)CCC[C@]2(C)C2CC[C@]3(C)C(=CC(=O)O[C@H]3c3ccoc3)[C@@]21C (some centres undefined)", "0.993 (inactive)"),
    ("C[C@@H]1CCC2[C@](C)(CO)[C@@H](O)CC[C@]2(C)[C@@]12CC[C@@](CO)(CCO)O2 (some centres undefined)", "1.02 (inactive)"),
]

Okay, next one:
For the molecule CCC(=O)OCC(=O)C1(OC(=O)CC)C(C)CC2C3CCC4=CC(=O)C=CC4(C)C3(Cl)C(O)CC21C (centres undefined) , give its measured normalized growth value.
1.02 (inactive)
